assay: Estimated hot solubility in solvents at elevated temperature (approximately solvent boiling point); format: physicochemical; settings: 80 °C, organic solvent or mixture, thermodynamic from solid, Methyl Ethyl Ketone (MEK), read-out: Hot Solubility (est)
measuredProperty: solubility

Name the reported solubility value associated with the compound COc1ccc(C(=O)NC2(C(=O)O)Cc3ccccc3C2)cc1OCCc1cccc(C)c1
> 15 mg/mL

---

Test: Estimated hot solubility in solvents at elevated temperature (approximately solvent boiling point)
Assay type: physicochemical
Conditions: 56 °C, organic solvent or mixture, thermodynamic from solid, Acetone, read-out: Hot Solubility (est)
Experimental: Compound I was dissolved in a variety of solvents at elevated temperature (approximately at solvent boiling point) to provide solutions of Compound I with a maximum concentration of 15 mg/mL. The input material in these experiments was a mixture of polymorphic forms 1, 2, and 3. When concentrations of Compound I was greater than 2 mg/mL, the solutions were filtered and evaporated at 25° C. to isolate the solid.
measuredProperty: solubility

Name the reported solubility value associated with the compound COc1ccc(C(=O)NC2(C(=O)O)Cc3ccccc3C2)cc1OCCc1cccc(C)c1
> 10000 µg/mL

---

experiment: Solubility of Compound I in solvents at room temperature (about 25° C.); type: physicochemical; conditions: organic solvent or mixture, thermodynamic from solid, isobutyl alcohol, read-out: Solubility (estimated)
measuredProperty: solubility

Name the reported solubility value associated with the compound COc1ccc(C(=O)NC2(C(=O)O)Cc3ccccc3C2)cc1OCCc1cccc(C)c1
< 2000 µg/mL

---

assay: Solubility of Compound I in solvents at room temperature (about 25° C.); type: physicochemical; conditions: organic solvent or mixture, thermodynamic from solid, isopropanol, read-out: Solubility (estimated)
measuredProperty: solubility

Name the reported solubility value associated with the compound COc1ccc(C(=O)NC2(C(=O)O)Cc3ccccc3C2)cc1OCCc1cccc(C)c1
< 2000 µg/mL

---

experiment: Solubility of Compound I in solvents at room temperature (about 25° C.); format: physicochemical; conditions: organic solvent or mixture, thermodynamic from solid, 1-pentanol, read-out: Solubility (estimated)
measuredProperty: solubility

Name the reported solubility value associated with the compound COc1ccc(C(=O)NC2(C(=O)O)Cc3ccccc3C2)cc1OCCc1cccc(C)c1
< 2000 µg/mL

---

assay: Solubility of Compound I in solvents at room temperature (about 25° C.); type: physicochemical; details: organic solvent or mixture, thermodynamic from solid, ethanol, read-out: Solubility (estimated)
measuredProperty: solubility

Name the reported solubility value associated with the compound COc1ccc(C(=O)NC2(C(=O)O)Cc3ccccc3C2)cc1OCCc1cccc(C)c1
< 2000 µg/mL

---

assay: Solubility of Compound I in solvents at room temperature (about 25° C.); type: physicochemical; conditions: organic solvent or mixture, thermodynamic from solid, THF, read-out: Solubility
measuredProperty: solubility

Name the reported solubility value associated with the molecule COc1ccc(C(=O)NC2(C(=O)O)Cc3ccccc3C2)cc1OCCc1cccc(C)c1
> 10000 µg/mL

---

experiment: Estimated hot solubility in solvents at elevated temperature (approximately solvent boiling point); type: physicochemical; details: 65 °C, organic solvent or mixture, thermodynamic from solid, Methanol, read-out: Hot Solubility (est)
measuredProperty: solubility

Name the reported solubility value associated with the molecule COc1ccc(C(=O)NC2(C(=O)O)Cc3ccccc3C2)cc1OCCc1cccc(C)c1 [Compound I]
> 10 mg/mL

---

experiment: Solubility of Compound I in solvents at room temperature (about 25° C.); format: physicochemical; details: organic solvent or mixture, thermodynamic from solid, butyl acetate, read-out: Solubility (estimated)
measuredProperty: solubility

Name the reported solubility value associated with the molecule COc1ccc(C(=O)NC2(C(=O)O)Cc3ccccc3C2)cc1OCCc1cccc(C)c1 [Compound I]
< 2000 µg/mL
